The entries below are paired with their reported pIC50.
molecular target: Recombinant human PDK1 enzyme (aa 52-556) (Homo sapiens (Human)); experiment: PDK1 kinase assay; conditions: in vitro kinase assay, His6-PDK1 (aa 52-556), PDKtide, P33-ATP
Sequence (O15530 52-556): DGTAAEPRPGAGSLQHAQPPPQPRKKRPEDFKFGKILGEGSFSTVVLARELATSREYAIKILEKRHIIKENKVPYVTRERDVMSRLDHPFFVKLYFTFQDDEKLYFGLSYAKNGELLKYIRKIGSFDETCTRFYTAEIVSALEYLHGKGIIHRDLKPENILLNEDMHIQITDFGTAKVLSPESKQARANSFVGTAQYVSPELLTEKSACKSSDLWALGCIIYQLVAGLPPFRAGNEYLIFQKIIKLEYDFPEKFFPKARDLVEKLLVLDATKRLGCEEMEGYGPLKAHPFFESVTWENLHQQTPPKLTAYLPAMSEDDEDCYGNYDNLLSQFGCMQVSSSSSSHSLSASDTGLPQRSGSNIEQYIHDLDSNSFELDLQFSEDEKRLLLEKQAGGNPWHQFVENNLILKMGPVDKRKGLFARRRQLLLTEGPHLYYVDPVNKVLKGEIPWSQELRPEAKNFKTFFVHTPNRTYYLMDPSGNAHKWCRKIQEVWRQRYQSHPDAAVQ
pIC50: −log10 of the molar value.
Observed Property: pIC50

Compound | Measurement
Cc1c(C#CCNC(=O)c2cncn(Cc3ccc(F)c(F)c3)c2=O)ccc2ncc(-c3ccccc3)cc12 [I-79] | 7.10
O=C(NCC#Cc1ccc2ncnc(NCCc3ccco3)c2c1)c1cncn(Cc2ccc(F)c(F)c2)c1=O [II-6] | 7.01
O=C(NCC#Cc1ccc2ncc(N[C@H]3CC[C@H](N4CCOCC4)CC3)nc2c1)c1cccn([C@H](CO)c2ccccc2)c1=O [I-59] | 8.30
CCN(CC)C(=O)c1cnc2ccc(C#CCNC(=O)c3cncn(Cc4ccc(F)c(F)c4)c3=O)cc2c1 [II-71] | 6.00
CN(C)CCCN(C)c1cnc2ccc(C#CCNC(=O)c3cncn(Cc4ccc(F)c(F)c4)c3=O)cc2n1 [I-13] | 7.47
CN(C)c1ncnc2ccc(C#CCNC(=O)c3cccn(Cc4cc[nH]n4)c3=O)cc12 [II-42] | 6.16
O=C(NCC#Cc1ccc2nccc(OC[C@@H]3CCCN(CCN4CCOCC4)C3)c2c1)c1cccn(Cc2cc(F)c(F)c(F)c2)c1=O [I-125.19] | 8.52
CN(C)CC(C)(C)COc1ccnc2ccc(C#CCNC(=O)c3cccn(Cc4ccc(F)c(F)c4)c3=O)cc12 [I-103] | 7.48
CNc1ncnc2ccc(C#CCNC(=O)c3cccn(Cc4ccc(F)c(F)c4)c3=O)c(C)c12 [I-3] | 8.10
CN(C)CC(O)COc1ccnc2ccc(C#CCNC(=O)c3cncn(Cc4ccc(F)c(F)c4)c3=O)cc12 (stereo not shown) [I-104] | 7.15
CN(C)CCN(C)c1cnc2ccc(C#CCNC(=O)c3cncn(Cc4ccc(F)c(F)c4)c3=O)cc2n1 [I-11] | 7.06
COC(=O)c1cnc2ccc(C#CCNC(=O)c3cncn(Cc4ccc(F)c(F)c4)c3=O)c(C)c2c1 [I-82] | 6.92
O=C(NCC#Cc1ccc2ncc(NC3CCN(C4CC4)CC3)nc2c1)c1cncn(Cc2ccc(F)c(F)c2)c1=O [I-23] | 8.10
CCN1CCC(Nc2cnc3ccc(C#CCNC(=O)c4cccn([C@@H](CO)c5ccc(F)c(F)c5)c4=O)cc3n2)CC1 [I-50] | 9.00
CCN1CCC(Nc2cnc3ccc(C#CCNC(=O)c4cccn([C@@H](C)c5ccc(F)c(F)c5)c4=O)cc3c2)CC1 [I-75] | 9.00
CNc1ncnc2ccc(C#CCNC(=O)c3cncn(Cc4ccc(F)c(F)c4)c3=O)cc12 [II-1] | 7.92
